Collected melting point values appear next to each entry.

Worked cases, answers included:
- Molecule: "CSc1ccc(COc2cccc(C(=O)Nc3ccc(C#N)cn3)c2)cc1"
  Value Kind: "melting point"
  Val: "146 to 147 °C"
- Molecule: "OCc1ccc(/C=C/c2ccc(OC(F)(F)F)cc2)cc1"
  Value Kind: "melting point"
  Val: "161 to 163 °C"
- Molecule: "CCOC(=O)C(Cc1cc(OC)c(OC)cc1OC)C(=O)OCC"
  Value Kind: "melting point"
  Val: "50 to 51 °C"
- Molecule: "NS(=O)(=O)c1cccc(NC(=O)Nc2c(F)c(F)c(F)c(F)c2F)c1"
  Value Kind: "melting point"
  Val: "224 to 227 °C"
- Molecule: "O=C(CBr)c1ccc(-c2ccc([N+](=O)[O-])cc2)o1"
  Value Kind: "melting point"
  Val: "153 to 162 °C"

// melting point lookup, molecule = CCOC(=O)OC1CCN(C(=O)OCC)Cc2cc3ccccc3nc21 (configuration not stated) , result: < 40 °C

// melting point lookup, molecule = CCOCc1nc2c(N)nc(C)cc2n1CCCCNC(=O)N1CCOCC1 , result: 156 to 160 °C

----------
Collected melting point values appear next to each entry.

- Compound: "c1ccc(-c2nc3c([nH]2)Cc2ccccc2-3)cc1"
  Value Kind: "melting point"
  Val: "141 to 143 °C"
- Compound: "CCOC(=O)/C=C(C)/C=C/C=C(C)/C=C/c1c(Cl)cc(OC(F)(F)F)c(C)c1Cl"
  Value Kind: "melting point"
  Val: "93 to 94 °C"
- Compound: "O=C1c2ccccc2C(=O)N1C1CCCc2sccc21 (stereo not drawn)"
  Value Kind: "melting point"
  Val: "166 to 168 °C"
- Compound: "CC1(O)CCCc2nc3ccccc3c(N)c21 (stereo not drawn)"
  Value Kind: "melting point"
  Val: "250 °C"
- Compound: "CC(C)NCCCC(O)c1ccccc1-c1ccccc1 (stereo not drawn)"
  Value Kind: "melting point"
  Val: "78 to 80 °C"

// melting point lookup, compound = Nc1ccc(-c2noc(-c3cnn4c(C(F)(F)F)cc(-c5ccc(F)c(F)c5)nc34)n2)cn1 , result: 262 °C

// melting point lookup, compound = CC(c1cc2cc(Cl)ccc2o1)N(O)C(N)=O (stereo not drawn) , result: 174 to 175 °C

----------
Collected melting point values appear next to each entry.

Worked cases, answers included:
- Molecule: "COc1ccc(-c2cnc(N)c(Sc3ccccc3)n2)cc1"
  melting point: "89 to 90 °C"
- Molecule: "CCOC(=O)c1ccc(NCc2ccc(OC)cc2)cc1"
  melting point: "128 to 130 °C"
- Molecule: "COCN(c1c(C)ccc2ccccc12)C1COC(=O)C1 (configuration not stated)"
  melting point: "42 to 46 °C"

// melting point lookup, molecule = CCC(C)Oc1ccccc1-c1ncc(C(N)=O)c(=O)[nH]1 (configuration not stated) , result: 183 to 185 °C

// melting point lookup, molecule = Cc1cc2cc(C#CCO)ccc2o1 , result: 102 °C

// melting point lookup, molecule = O=S(=O)(c1ccc(OCCO)cc1)C(Br)(Br)Br , result: 157 to 162 °C

// melting point lookup, molecule = CCOC(=O)C(=O)Nc1sc(-c2ccccc2)cc1[N+](=O)[O-] , result: 139 to 144 °C

----------
Value Kind: melting point

Worked cases, answers included:
- Molecule: "CC(=O)Oc1c(C)c(C)c2c(c1C)C(c1ccc(F)cc1)C(C)(C)O2 (centres undefined)"
  melting point: "86 to 87 °C"
- Molecule: "Clc1ccc2c(c1)C(c1ccccc1)=NCc1nnc(CNCC3CC3)n1-2"
  melting point: "154 to 157 °C"
- Molecule: "CC(=O)Oc1c(C)cc(OCC(=O)c2ccc(C(C)C)cc2)c2ccccc12"
  melting point: "105 to 106 °C"

Now consider a different molecule.
// melting point lookup, molecule = O=C(O)Cc1ccc(C(=O)c2ccccc2)cc1[N+](=O)[O-] , result: 168 to 170 °C

----------
Collected melting point values appear next to each entry.

Worked cases, answers included:
- Compound: "O=c1[nH]nc2n1-c1ccc(N3CCCC3)nc1C(c1ccccc1Cl)=NC2"
  Val: "228 to 230 °C"
- Compound: "CCOC(=O)c1nnc2ccc(N3C(=O)C=CC3=O)cc2c1O"
  Val: "257 to 260 °C"
- Compound: "CCOC(=O)NCCc1ccccc1"
  Val: "47 to 48 °C"
- Compound: "Clc1cccc2c1nnn2C1CCCCC1"
  Val: "141 to 144 °C"
- Compound: "COc1ccc2c(c1OC)CN(c1nc(N)c3cc(OC)c(OC)c(OC)c3n1)CC2"
  Val: "190 °C"
- Compound: "O=C(CCc1ccccc1)Nc1ccc(CN2C(=O)[C@H]3CCC[C@H]3N(C(=O)CN3C(=O)c4ccccc4C3=O)c3ccccc32)cc1 (relative stereo)"
  Val: "222 °C"

Now consider a different compound.
// melting point lookup, compound = O=C1c2ccccc2C2(O)Oc3c(ccc4c3CCCC4)C12O (configuration not stated) , result: 252 to 254 °C

----------
Value Kind: melting point

Worked cases, answers included:
- Compound: "O=S(=O)(Nc1ccc2c(OCc3csc(-c4ccccc4Cl)n3)cccc2c1)C(F)(F)F"
  melting point: "128 to 129 °C"
- Compound: "COc1ccc(N(c2nc(N)nc(NC3CC3)n2)C2CC2)cc1F"
  melting point: "91 to 92 °C"
- Compound: "CCc1nc2c(N)nc3ccccc3c2n1CCCS(C)(=O)=O"
  melting point: "> 250 °C"
- Compound: "CCCCCCCCC(Sc1ccccn1)C(=O)Nc1cccc2cnccc12 (stereo not given)"
  melting point: "81 to 83 °C"
- Compound: "CC(C)(C)c1cc(C2=Cc3cc(-c4ccccc4)ccc3C2)cc(C(C)(C)C)c1"
  melting point: "122 to 123 °C"

// melting point lookup, compound = O=C(c1ccc(F)cc1)N1CCN(S(=O)(=O)c2ccc(Nc3ccnc4cc(Cl)ccc34)cc2)CC1 , result: 235 to 237 °C

// melting point lookup, compound = O=C(O)c1cn(C2CC2)c2nc3cc(N4CCNC(c5ccco5)C4)c(F)cc3cc2c1=O (racemic) , result: 240 to 241 °C

// melting point lookup, compound = CCOc1ccc(Br)c(Cl)c1F , result: 48 to 48.5 °C

// melting point lookup, compound = COC(=O)[C@H]1C=C(c2ccc(Br)cc2)OC(=O)[C@H]1Cc1ccccc1 , result: 139 to 141 °C

// melting point lookup, compound = CN(C(=S)Oc1ccc(Cl)c(C(C)(C)C)c1)c1ccccc1 , result: 65 to 67 °C

// melting point lookup, compound = CN1CCSC1=NC(=Nc1ccc(Cl)cc1)N1CCCC1 , result: 124 to 127 °C

// melting point lookup, compound = CCOC(=O)C1=C(OCC)C(OCC)=NS1(=O)=O , result: 129 to 133 °C

// melting point lookup, compound = Cc1nc(-c2cccnc2)sc1-c1ccnc(Nc2ccc(N3CCCC3)cc2)n1 , result: 212 to 214 °C

----------
Value Kind: melting point

- Molecule: "CCCC(NS(N)(=O)=O)C(=O)OC (stereo unspecified)"
  melting point: "63 to 64 °C"
- Molecule: "COC(C(=O)O)c1nn(-c2ccc(Cl)cc2)c2c1CCCC2 (stereo unspecified)"
  melting point: "185 to 186 °C"
- Molecule: "CCn1c2cc(Cl)ccc2c2oc(C(=O)Cl)cc21"
  melting point: "137 to 138 °C"
- Molecule: "Cc1nc2cc(Nc3ncc4ccc(-c5cccc(S(=O)(=O)NC(C)(C)C)c5)n4n3)ccc2o1"
  melting point: "212 to 214 °C"
- Molecule: "O=C(NS(=O)(=O)N1CCCCC1)C1=NN(c2ccc(Cl)cc2)C(c2ccccc2)C1 (stereo unspecified)"
  melting point: "176 to 179 °C"

// melting point lookup, molecule = CN(C)NC(=O)N(C)C1c2ccccc2Oc2ccccc21 , result: 120 to 123 °C

// melting point lookup, molecule = C[C@]12CCC(=O)C=C1CC[C@@H]2c1cn[nH]n1 , result: 126 to 129 °C

----------
Collected melting point values appear next to each entry.

- Compound: "O=C(c1ccc(-c2ccccn2)s1)N1CCCCc2sccc21"
  melting point: "150 to 154 °C"
- Compound: "COc1ccc(C)cc1NC(=O)Nc1ccc(N2CCN(C(=O)C3CC4CCC3C4)CC2)cc1 (stereo not given)"
  melting point: "126 to 128 °C"
- Compound: "CCCCCNS(=O)(=O)NC(=O)/C=C/c1ccc(OCCOC)cc1Oc1ncc(C(F)(F)F)cc1Cl"
  melting point: "120 to 122 °C"
- Compound: "O=C1NC(=O)C(c2ccc3c(c2)CCC3)S1 (stereo not given)"
  melting point: "124 to 125 °C"
- Compound: "C=C(C)C(OC(=O)Nc1cc(OC(=O)Oc2cc(NC(=O)OC(C(=C)C)C(=O)OC)c(F)cc2Cl)c(Cl)cc1F)C(=O)OC (stereo not given)"
  melting point: "72 to 74 °C"
- Compound: "CCCc1cc(Cl)c(OC(=S)N(C)C)c(C(C)=O)c1O"
  melting point: "114 to 116 °C"

// melting point lookup, compound = COc1cccc(-c2c(C)c(NC(=O)CC(C)(C)C)c(C)c3c2OCC3c2ccc(C(C)C)cc2)c1 (stereo not given) , result: 209 to 210 °C

// melting point lookup, compound = Nc1nc2ccccc2c2c1nc(CC1CC1)n2CCOc1ccccc1 , result: 192 to 193 °C

// melting point lookup, compound = CCOC(=O)c1cnc2c(cnn2Cc2ccco2)c1OCC , result: 93 to 96 °C

// melting point lookup, compound = CCCCCCCCNC(=O)n1cc(F)c(=O)[nH]c1=O , result: 98 to 100 °C
